Source: patent US20250042891A1

target: PARG (389-976) (Homo sapiens (Human)); experiment: PARG enzyme inhibition assay (TR-FRET); type: biochemical; conditions: class symbol; Bio PARylated His-TEV-PARP1 substrate, TR-FRET

# COMPOUND, IC50
records = [
    ("CC(C)S(=O)(=O)c1ccc(-c2cc(S(=O)(=O)NC3(C#N)CC3)cc3c(-c4nnc(C(F)F)s4)nn(C)c23)cn1", "< 1 nM"),
    ("CN=S(=O)(C(C)C)N1CC=C(c2cc(S(=O)(=O)NC3(C#N)CC3)cc3c(-c4nnc(C(F)F)s4)nn(C)c23)CC1 (stereo not shown)", "< 1 nM"),
    ("Cn1nc(-c2nnc(C(F)F)s2)c2cc(S(=O)(=O)NC3(C#N)CC3)cc(C3=CCN(S(=O)(=O)C4CCC4)CC3)c21", "< 1 nM"),
    ("CC(C)CS(=O)(=O)N1CC=C(c2cc(S(=O)(=O)NC3(C#N)CC3)cc3c(-c4nnc(C(F)F)s4)nn(C)c23)CC1", "1 to 10 nM"),
    ("CC(C)S(=O)(=O)N1CCC(c2cc(S(=O)(=O)NC3(C#N)CC3)cc3c(-c4nnc(C(F)(F)F)s4)nn(C)c23)=C(C(N)=O)C1", "< 1 nM"),
    ("CC(C)S(=O)(=O)N1CC=C(c2cc(S(=O)(=O)NC3(C#N)CC3)cc3c(-c4noc(C(F)(F)F)n4)nn(C)c23)CC1", "< 1 nM"),
    ("CC(C)[S+]([O-])C1CC=C(c2cc(S(=O)(=O)NC3(C#N)CC3)cc3c(-c4nnc(C(F)F)s4)nn(C)c23)CC1 (stereo not shown)", "< 1 nM"),
    ("CC(C)S(=O)(=O)N1CC=C(c2cc(S(=O)(=O)NC3(C#N)CC3)cc3c(-c4nnc(C(F)F)s4)nn(C)c23)C(F)C1 (stereo not shown)", "< 1 nM"),
    ("CC(C)S(=O)(=O)N1CC=C(c2cc(S(=O)(=O)NC3(CF)CC3)cc3c(-c4nnc(C(F)F)s4)nn(C)c23)CC1", "< 1 nM"),
    ("CC(C)S(=O)(=O)N1CCC(c2cc(S(=O)(=O)NC3(C#N)CC3)cc3c(-c4nnc(C(F)F)s4)nn(C)c23)=C(CO)C1", "< 1 nM"),
    ("CC(C)[S+]([O-])c1ccc(-c2cc(S(=O)(=O)NC3(C#N)CC3)cc3c(-c4nnc(C(F)(F)F)s4)nn(C)c23)cn1 (stereo not shown)", "< 1 nM"),
    ("CC(C)S(=O)(=O)N1CCC(c2cc(S(=O)(=O)NC3(C#N)CC3)cc3c(-c4nnc(C(F)F)s4)nn(C)c23)=C(F)C1", "< 1 nM"),
    ("Cn1nc(-c2nnc(C(F)F)s2)c2cc(S(=O)(=O)NC3(C#N)CC3)cc(C3=CCN(S(=O)(=O)C4CC4)CC3)c21", "< 1 nM"),
    ("CC(C)S(=O)(=O)N1CC=C(c2cc(S(=O)(=O)NC3(C#N)CC3)cc3c(-c4nnc(C(F)(F)F)s4)nn(CC(F)(F)F)c23)CC1", "1 to 10 nM"),
    ("Cn1nc(-c2nnc(C(F)F)s2)c2cc(S(=O)(=O)NC3(C#N)CC3)cc(C3=CCN(S(=O)(=O)C4CNC4)CC3)c21", "< 1 nM"),
    ("CC(C)S(=O)(=O)N1CCC(c2cc(S(=O)(=O)NC3(C#N)CC3)cc3c(-c4nnc(C(F)(F)F)s4)nn(C)c23)=C(CO)C1", "< 1 nM"),
    ("CC(C)S(=O)(=O)c1ccc(-c2cc(S(=O)(=O)NC3(C#N)CC3)cc3c(-c4nnc(C(F)(F)F)s4)nn(C)c23)nc1", "100 to 1000 nM"),
    ("CC(C)S(=O)(=O)c1ccc(-c2cc(S(=O)(=O)NC3(C#N)CC3)cc3c(-c4nnc(C(F)F)s4)nn(C)c23)cc1", "1 to 10 nM"),
    ("CC(C)S(=O)(=O)N1CCC(O)(c2cc(S(=O)(=O)NC3(C#N)CC3)cc3c(-c4nnc(C(F)F)s4)nn(C)c23)CC1", "1 to 10 nM"),
    ("COCCn1nc(-c2nnc(C(F)F)s2)c2cc(S(=O)(=O)NC3(C#N)CC3)cc(C3=CCN(S(=O)(=O)C(C)C)CC3)c21", "< 1 nM"),
    ("CC(C)Sc1ncc(-c2cc(S(=O)(=O)NC3(C#N)CC3)cc3c(-c4nnc(C(F)F)s4)nn(C)c23)cn1", "100 to 1000 nM"),
    ("CC(C)S(=O)(=O)N1CCN(c2cc(S(=O)(=O)NC3(C#N)CC3)cc3c(-c4nnc(C(F)(F)F)s4)nn(C)c23)C=N1", "< 1 nM"),
    ("CC(C)S(=O)(=O)N1CCN(c2cc(S(=O)(=O)NC3(C#N)CC3)cc3c2cnn3-c2nnc(C(F)F)s2)CC1", "1 to 10 nM"),
    ("CC(C)S(=O)(=O)N1CC=C(c2cc(S(=O)(=O)NC3(C#N)CC3)cc3c(-c4nnc(C(F)F)s4)nn(C)c23)C(F)(F)C1", "< 1 nM"),
    ("Cc1cc(Cn2c(=O)n(Cc3cnc(C)s3)c(=O)c3cc(S(=O)(=O)NC4(C)CC4)ccc32)n(C)n1 [PDD 00017273, reference compound]", "1 to 10 nM"),
]

* * *

tested on: HCC1428; assay: CTG assay for proliferation inhibition of cell lines; assay type: cell-based; details: HCC1428, 7 days, CellTiter Glo

# COMPOUND, IC50
measured = [
    ("CC(C)S(=O)(=O)N1CCC(c2cc(S(=O)(=O)NC3(C#N)CC3)cc3c(-c4nnc(C(F)F)s4)nn(C)c23)=C(C=O)C1", "0.343 µM"),
    ("CC(C)[S+]([O-])C1CC=C(c2cc(S(=O)(=O)NC3(C#N)CC3)cc3c(-c4nnc(C(F)F)s4)nn(C)c23)CC1 (stereo not drawn)", "0.45 µM"),
    ("CC(C)S(=O)(=O)N1CCC(c2cc(S(=O)(=O)NC3(C#N)CC3)cc3c(-c4nnc(C(F)(F)F)s4)nn(C)c23)=C(CN(C)C)C1", "0.0621 µM"),
]

* * *

Tested on: HCC1395
Assay: CTG assay for proliferation inhibition of cell lines
Format: cell-based
Settings: HCC1395, 7 days, CellTiter Glo
Method: The assay was conducted on either 384-well plates or 96-well plates. The procedures are as follows: The cell suspensions were added to 384- or 96-well plates (384-well plate: 50 μL; 96-well plate: 100 μL) except for peripheral wells. […] The incubated plates were placed into Victor NIVO reader plates, and the pharmacodynamic inhibition curves were plotted and IC50 values were calculated using XLFit.

# COMPOUND, TARGET, IC50 [µM]
measured = [
    ("CC(C)S(=O)(=O)c1ccc(-c2cc(S(=O)(=O)NC3(C#N)CC3)cc3c(-c4nnc(C(F)F)s4)nn(C)c23)cc1", "HCC1395", 0.197),
    ("CC(C)S(=O)(=O)N1CC=C(c2cc(S(=O)(=O)NC3(C#N)CC3)cc3c(-c4nnc(C(F)(F)F)s4)nn(CC(F)(F)F)c23)CC1", "HCC1395", 0.253),
    ("CC(C)S(=O)(=O)N1CC=C(c2cc(S(=O)(=O)NC3(C#N)CC3)cc3c(-c4nnc(C(F)F)s4)n(CC4CC4)nc23)CC1", "HCC1395", 1.05),
    ("COCC(C)S(=O)(=O)N1CC=C(c2cc(S(=O)(=O)NC3(C#N)CC3)cc3c(-c4nnc(C(F)F)s4)nn(C)c23)CC1 (stereo not drawn)", "HCC1395", 0.183),
    ("Cn1nc(-c2nnc(C(F)F)s2)c2cc(S(=O)(=O)NC3(C#N)CC3)cc(C3=CCN(S(=O)(=O)C4CCNCC4)CC3)c21", "HCC1395", 0.827),
    ("CC(C)S(=O)(=O)N1CCC(c2cc(S(=O)(=O)NC3(C#N)CC3)cc3c(-c4nnc(C(F)(F)F)s4)nn(C)c23)=C(CN(C)C)C1", "HCC1395", 0.156),
]

* * *

target: PARG (389-976) (Homo sapiens (Human), UniProt Q86W56); assay: PARG enzyme inhibition assay (TR-FRET); format: biochemical; conditions: class symbol; Bio PARylated His-TEV-PARP1 substrate, TR-FRET
Sequence (Q86W56 389-976): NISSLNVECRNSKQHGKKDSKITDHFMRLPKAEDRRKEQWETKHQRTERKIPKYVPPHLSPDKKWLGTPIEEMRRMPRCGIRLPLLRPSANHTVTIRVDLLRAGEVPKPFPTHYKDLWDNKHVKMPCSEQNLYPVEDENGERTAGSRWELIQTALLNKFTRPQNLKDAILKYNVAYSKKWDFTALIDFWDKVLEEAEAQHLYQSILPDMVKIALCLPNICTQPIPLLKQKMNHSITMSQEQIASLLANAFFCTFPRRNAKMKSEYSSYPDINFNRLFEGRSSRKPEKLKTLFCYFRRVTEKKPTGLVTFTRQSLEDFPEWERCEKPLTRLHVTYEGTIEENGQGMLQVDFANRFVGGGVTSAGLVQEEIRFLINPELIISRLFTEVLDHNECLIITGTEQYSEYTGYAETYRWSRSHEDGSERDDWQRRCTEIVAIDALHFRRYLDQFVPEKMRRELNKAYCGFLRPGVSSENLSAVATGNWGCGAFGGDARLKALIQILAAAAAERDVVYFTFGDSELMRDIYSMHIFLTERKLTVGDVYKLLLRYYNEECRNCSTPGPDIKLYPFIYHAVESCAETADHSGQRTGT
pIC50: −log10 of the molar value.
Quick reference: pIC50 of the listed items.

# COMPOUND, pIC50
records = [
    ("CC(C)[S+]([O-])c1ncc(-c2cc(S(=O)(=O)NC3(C#N)CC3)cc3c(-c4nnc(C(F)F)s4)nn(C)c23)cn1 (stereo not drawn)", "8.00 to 9.00"),
    ("CC(C)S(=N)(=O)N1CC=C(c2cc(S(=O)(=O)NC3(C#N)CC3)cc3c(-c4nnc(C(F)F)s4)nn(C)c23)CC1 (stereo not drawn)", "> 9.00"),
    ("CC(C)S(=O)(=O)c1ccc(-c2cc(S(=O)(=O)NC3(C#N)CC3)cc3c(-c4nnc(C(F)(F)F)s4)nn(C)c23)cn1", "8.00 to 9.00"),
    ("CC(C)S(=O)(=O)C1CC=C(c2cc(S(=O)(=O)NC3(C#N)CC3)cc3c(-c4nnc(C(F)F)s4)nn(C)c23)CC1 (stereo not drawn)", "8.00 to 9.00"),
    ("CC(C)S(=O)(=O)N1CCC2(c3cc(S(=O)(=O)NC4(C#N)CC4)cc4c(-c5nnc(C(F)F)s5)nn(C)c34)OC2C1 (stereo not drawn)", "> 9.00"),
    ("CC(C)S(=O)(=O)N1Cc2cn(-c3cc(S(=O)(=O)NC4(C#N)CC4)cc4c(-c5nnc(C(F)F)s5)nn(C)c34)nc2C1", "8.00 to 9.00"),
    ("CC(C)S(=O)(=O)N1CC=C(c2cc(S(=O)(=O)NC3(C#N)CC3)cc3c(-c4nnc(C(F)(F)F)s4)nn(Cc4ccncc4)c23)CC1", "8.00 to 9.00"),
    ("CC(C)S(=O)(=O)N1CC=C(c2cc(S(=O)(=O)NC3(C(N)=O)CC3)cc3c(-c4nnc(C(F)F)s4)nn(C)c23)CC1", "8.00 to 9.00"),
    ("CC(C)SC1CC=C(c2cc(S(=O)(=O)NC3(C#N)CC3)cc3c(-c4nnc(C(F)F)s4)nn(C)c23)CC1 (stereo not drawn)", "7.00 to 8.00"),
    ("CC(C)S(=O)(=O)N1CCN(c2c(F)c(S(=O)(=O)NC3(C#N)CC3)cc3c(-c4nnc(C(F)(F)F)s4)nn(C)c23)CC1", "> 9.00"),
    ("Cn1nc(-c2nnc(C(F)F)s2)c2cc(S(=O)(=O)NC3(C#N)CC3)cc(C3=CCN(S(=O)(=O)C4CCOCC4)CC3)c21", "> 9.00"),
    ("CC(C)S(=O)(=O)N1CCC(c2cc(S(=O)(=O)NC3(C#N)CC3)cc3c(-c4nnc(C(F)(F)F)s4)nn(C)c23)=C(CN(C)C)C1", "8.00 to 9.00"),
    ("Cn1nc(-c2nnc(C(F)(F)F)s2)c2cc(S(=O)(=O)NC3(C#N)CC3)cc(C3=CCN(S(=O)(=O)c4ccccc4)CC3)c21", "7.00 to 8.00"),
    ("CC(C)S(=O)(=O)N1CC=C(c2cc(S(=O)(=O)NC3(C#N)CC3)cc3c2ccn3-c2nnc(C(F)(F)F)s2)CC1", "8.00 to 9.00"),
    ("CC(C)C(=O)N1CCN(c2cc(S(=O)(=O)NC3(C#N)CC3)cc3c2cnn3-c2nnc(C(F)F)s2)CC1 [1′, reference compound]", "8.00 to 9.00"),
    ("CC(C)S(=O)(=O)N1CC=C(c2cc(S(=O)(=O)NC3(C#N)CC3)cc3c(-c4nnc(C(F)F)s4)nn(CCN(C)C)c23)CC1", "> 9.00"),
    ("Cn1nc(-c2nnc(C(F)F)s2)c2cc(S(=O)(=O)NC3(C#N)CC3)cc(C3=CCN(S(=O)(=O)C4COC4)CC3)c21", "> 9.00"),
    ("COCCn1nc(-c2nnc(C(F)F)s2)c2cc(S(=O)(=O)NC3(C#N)CC3)cc(N3CCN(S(=O)(=O)C(C)C)CC3)c21", "> 9.00"),
    ("CC(C)S(=O)(=O)c1ccc(-c2cc(S(=O)(=O)NC3(C#N)CC3)cc3c(-c4nnc(C(F)F)s4)nn(C)c23)nc1", "6.00 to 7.00"),
    ("CC(C)S(=O)(=O)N1CCC(c2cc(S(=O)(=O)NC3(C#N)CC3)cc3c(-c4nnc(C(F)F)s4)nn(C)c23)=C(C=O)C1", "> 9.00"),
    ("CC(C)S(=O)(=O)N1CC=C(c2cc(S(=O)(=O)NC3(C)CC3)cc3c(-c4nnc(C(F)F)s4)nn(C)c23)CC1", "> 9.00"),
]
